- tested target: NRAS G12C (Homo sapiens (Human), UniProt P01111+P62937, G12C)
- Sequence (P01111 whole entry G12C, one chain of several): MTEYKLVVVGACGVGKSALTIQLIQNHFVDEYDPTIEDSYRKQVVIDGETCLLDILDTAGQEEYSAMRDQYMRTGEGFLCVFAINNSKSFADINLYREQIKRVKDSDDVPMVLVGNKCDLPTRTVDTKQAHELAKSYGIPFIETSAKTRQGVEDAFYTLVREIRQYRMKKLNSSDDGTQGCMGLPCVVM
- assay method text: Ras-Raf (BRAF RBD) disruption / FRET / MOA assay, NRAS G12C
- Assay type: biochemical
- experimental conditions: read-out: IC50* NRAS G12C FRET data
observed property: IC50

C=CC(=O)NC[C@H]1CCN1C(=O)N(C)[C@H](C(=O)N[C@H]1Cc2nc(cs2)-c2ccc3c(c2)c(c(-c2cccnc2[C@H](C)OC)n3CC)CC(C)(C)COC(=O)[C@@H]2CCCN(N2)C1=O)C(C)C (atropisomer, axis not shown) | 100 to 1000 nM

// next entry
Identify measured IC50 corresponding to C=CC(=O)N1CC[C@H](C(=O)N(C)[C@H](C(=O)N[C@H]2Cc3cccc(c3)-c3ccc4c(c3)c(c(-c3cccnc3[C@H](C)OC)n4CC)CC(C)(C)COC(=O)[C@@H]3CCCN(N3)C2=O)C(C)C)[C@H]1C (atropisomer, axis not shown)
100 to 1000 nM

* * *

pIC50 reference
- tested target: NRAS G12C (Homo sapiens (Human), UniProt P01111+P62937, G12C)
- assay method text: Ras-Raf (BRAF RBD) disruption / FRET / MOA assay, NRAS G12C
- Type: biochemical
- experimental conditions: read-out: IC50* NRAS G12C FRET data
pIC50: −log10 of the molar value.

C=CC(=O)N1CC[C@@H]2[C@H](C1)CN2C(=O)N(C)[C@H](C(=O)N[C@H]1Cc2nc(cs2)-c2ccc3c(c2)c(c(-c2cccnc2[C@H](C)OC)n3CC)CC(C)(C)COC(=O)[C@@H]2CCCN(N2)C1=O)C(C)C (atropisomer, axis not shown) [Example A688] | 6.00 to 7.00

Supply pIC50 measured with NRAS G12C (Homo sapiens (Human), UniProt P01111+P62937, G12C) for C=CC(=O)N1C[C@H](C)N(C(=O)N(C)[C@H](C(=O)N[C@H]2Cc3nc(cs3)-c3ccc4c(c3)c(c(-c3cccnc3[C@H](C)OC)n4CC)CC(C)(C)COC(=O)[C@@H]3CCCN(N3)C2=O)C(C)C)C[C@H]1C (atropisomer, axis not shown) [Example A430] .
6.00 to 7.00

Supply pIC50 measured with NRAS G12C (Homo sapiens (Human), UniProt P01111+P62937, G12C) for C=C(C)C(=O)N1CC(N(C)C(=O)N(C)[C@H](C(=O)N[C@H]2Cc3nc(cs3)-c3ccc4c(c3)c(c(-c3cccnc3[C@H](C)OC)n4CC)CC(C)(C)COC(=O)[C@@H]3CCCN(N3)C2=O)C(C)C)C1 (atropisomer, axis not shown) [Example A360] .
6.00 to 7.00

* * *

- Test system: NCI-H358 (K-Ras G12C)
- assay method text: CellTiter-Glo cell viability assay, NCI-H358
- Type: cell-based, human
- experimental conditions: Homo sapiens, NCI-H358, 120 h, NCI-H358, 5-day treatment; class symbols; read-out: Additional H358 Cell Viability assay data (K-Ras G12C, IC50)
observed property: IC50

C=CC(=O)N1CC[C@H](C(=O)N(C)[C@H](C(=O)N[C@H]2Cc3cc(O)cc(c3)-c3ccc4c(c3)c(c(-c3cncs3)n4CC)CC(C)(C)COC(=O)[C@@H]3CCCN(N3)C2=O)C(C)C)C1 | 10 to 100 nM

// next entry
Identify measured IC50 corresponding to C=CC(=O)N1CCC2(CC1)CCN(C(=O)N(C)[C@H](C(=O)N[C@H]1Cc3nc(cs3)-c3ccc4c(c3)c(c(-c3cccnc3[C@H](C)OC)n4CC)CC(C)(C)COC(=O)[C@@H]3CCCN(N3)C1=O)C(C)C)CC2 (atropisomer, axis not shown)
10 to 100 nM

* * *

- tested target: KRAS G12D (Homo sapiens (Human), UniProt P01116+P62937, G12D)
- Sequence (P01116-2 other isoform, or with tags, fused parts or gaps G12D): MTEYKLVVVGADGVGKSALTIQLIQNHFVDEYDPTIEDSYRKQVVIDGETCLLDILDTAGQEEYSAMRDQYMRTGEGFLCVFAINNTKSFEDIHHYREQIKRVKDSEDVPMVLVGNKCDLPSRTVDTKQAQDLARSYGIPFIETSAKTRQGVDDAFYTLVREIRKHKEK
- Sequence (P62937 whole entry): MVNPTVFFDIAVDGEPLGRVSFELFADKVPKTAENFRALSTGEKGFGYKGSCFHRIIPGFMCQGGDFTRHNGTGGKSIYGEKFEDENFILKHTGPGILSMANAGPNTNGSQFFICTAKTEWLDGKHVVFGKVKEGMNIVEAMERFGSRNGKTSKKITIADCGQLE
- assay method text: Ras-Raf (BRAF RBD) disruption / FRET / MOA assay, KRAS G12D
- Type: biochemical
- experimental conditions: Ras-Raf disruption/FRET/MOA assay; class symbols; read-out: KRAS G12D FRET data IC50
pIC50: −log10 of the molar value.
observed property: pIC50

Here are 3 molecules together with their reported answers.
CCn1c(-c2cccnc2[C@H](C)OC)c2c3cc(ccc31)-c1csc(n1)C[C@H](NC(=O)[C@H](C(C)C)N(C)C(=O)N1CCC13CN(C(=O)/C=C/CN(C)C)C3)C(=O)N1CCC[C@H](N1)C(=O)OCC(C)(C)C2 (atropisomer, axis not shown) | 6.00 to 7.00
C=CC(=O)N1CC[C@]2(C1)OCN([C@H](C(=O)N[C@H]1Cc3cc(cc(C(F)F)c3)-c3ccc4c(c3)c(c(-c3cccnc3[C@H](C)OC)n4CC)CC(C)(C)COC(=O)[C@@H]3CCCN(N3)C1=O)C(C)C)C2=O (atropisomer, axis not shown) | 5.00 to 6.00
C/C=C/C(=O)N1CC2(CCN(C(=O)N(C)[C@H](C(=O)N[C@H]3Cc4nc(cs4)-c4ccc5c(c4)c(c(-c4cccnc4[C@H](C)OC)n5CC)CC(C)(C)COC(=O)[C@@H]4CCCN(N4)C3=O)C(C)C)CC2)C1 (atropisomer, axis not shown) | 6.00 to 7.00

Identify measured pIC50 corresponding to C=CC(=O)N1CCN(C(=O)N(C)[C@H](C(=O)N[C@H]2Cc3cc(O)cc(c3)-c3ccc4c(c3)c(c(-c3cccnc3[C@H](C)OC)n4CC)CC(C)(C)COC(=O)[C@@H]3CCCN(N3)C2=O)C(C)C)CC1 (atropisomer, axis not shown) [Example A262]
6.00 to 7.00

* * *

pIC50 reference
- tested target: KRAS Q61H (Homo sapiens (Human), UniProt P01116+P62937, Q61H)
- Sequence (P01116-2 other isoform, or with tags, fused parts or gaps Q61H, one chain of several): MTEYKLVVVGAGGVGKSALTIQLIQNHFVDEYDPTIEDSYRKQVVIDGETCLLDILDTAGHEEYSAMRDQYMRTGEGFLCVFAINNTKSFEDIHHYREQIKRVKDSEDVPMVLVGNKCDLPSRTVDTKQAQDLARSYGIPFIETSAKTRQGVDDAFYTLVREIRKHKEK
- assay method text: Ras-Raf (BRAF RBD) disruption / FRET / MOA assay, KRAS Q61H
- Format: biochemical
- experimental conditions: Ras-Raf disruption/FRET/MOA assay; class symbols; read-out: KRAS Q61H FRET data IC50
pIC50: −log10 of the molar value.

C=CC(=O)N(C)[C@H]1C[C@H](N(C)C(=O)N(C)[C@H](C(=O)N[C@H]2Cc3nc(cs3)-c3ccc4c(c3)c(c(-c3cccnc3[C@H](C)OC)n4CC)CC(C)(C)COC(=O)[C@@H]3CCCN(N3)C2=O)C(C)C)C1 (atropisomer, axis not shown) | 7.00 to 8.00
CO[C@@H](C)c1ncccc1-c1c2c3cc(ccc3n1CC(F)(F)F)-c1cnc(o1)C[C@H](NC(=O)[C@H](C(C)C)N(C)C(=O)[C@H]1CCN(C(=O)C#CC(C)(C)N(C)C)C1)C(=O)N1CCC[C@H](N1)C(=O)OCC(C)(C)C2 (atropisomer, axis not shown) | 5.00 to 6.00
C=CC(=O)N1CC[C@H](C(=O)N2CC[C@H](C)[C@H]2C(=O)N[C@H]2Cc3cccc(c3)-c3ccc4c(c3)c(c(-c3cccnc3[C@H](C)OC)n4CC)CC(C)(C)COC(=O)[C@@H]3CCCN(N3)C2=O)C1 (atropisomer, axis not shown) | 6.00 to 7.00
CCn1c(-c2cccnc2[C@H](C)OC)c2c3cc(ccc31)-c1csc(n1)C[C@H](NC(=O)[C@H](C(C)C)N(C)C(=O)N1CC(N(C)C(=O)/C=C/CN(C)C)C1)C(=O)N1CCC[C@H](N1)C(=O)OCC(C)(C)C2 (atropisomer, axis not shown) | 7.00 to 8.00

Supply pIC50 measured with KRAS Q61H (Homo sapiens (Human), UniProt P01116+P62937, Q61H) for C=CC(=O)N1CCOC2(CCN(C(=O)N(C)[C@H](C(=O)N[C@H]3Cc4cc(C(F)F)cc(n4)-c4ccc5c(c4)c(c(-c4cccnc4[C@H](C)OC)n5CC(F)(F)F)CC(C)(C)COC(=O)[C@@H]4CCCN(N4)C3=O)C(C)C)CC2)C1 (atropisomer, axis not shown) .
6.00 to 7.00

Supply pIC50 measured with KRAS Q61H (Homo sapiens (Human), UniProt P01116+P62937, Q61H) for CCn1c(-c2cccnc2[C@H](C)OC)c2c3cc(ccc31)N1CCO[C@@](C)(C[C@H](NC(=O)[C@H](C(C)C)N(C)C(=O)C3(F)CCN(C(=O)C#CC(C)(C)N(C)C)CC3)C(=O)N3CCC[C@H](N3)C(=O)OCC(C)(C)C2)C1 .
5.00 to 6.00

Supply pIC50 measured with KRAS Q61H (Homo sapiens (Human), UniProt P01116+P62937, Q61H) for C=CC(=O)N1CC2(CCN(C(=O)N(C)[C@H](C(=O)N[C@H]3Cc4cccc(c4)-c4ccc5c(c4)c(c(-c4cccnc4[C@H](C)OC)n5CC)CC(C)(C)COC(=O)[C@@H]4CCCN(N4)C3=O)C(C)C)CC2)C1 (atropisomer, axis not shown) .
6.00 to 7.00

Supply pIC50 measured with KRAS Q61H (Homo sapiens (Human), UniProt P01116+P62937, Q61H) for C=CC(=O)N1CC[C@H](C(=O)N(C)[C@H](C(=O)N[C@H]2Cc3cc(O)cc(c3)-c3ccc4nc(-c5cccnc5COC)c(n4c3)CC(C)(C)COC(=O)[C@@H]3CCCN(N3)C2=O)C(C)C)C1 .
< 5.00

Supply pIC50 measured with KRAS Q61H (Homo sapiens (Human), UniProt P01116+P62937, Q61H) for CCn1c(-c2cccnc2[C@H](C)OC)c2c3cc(ccc31)C1CCCN(C1)C[C@H](NC(=O)[C@@H](COC1CN(C(=O)C#CC(C)(C)N(C)C)C1)C(C)C)C(=O)N1CCC[C@H](N1)C(=O)OCC(C)(C)C2 .
< 5.00
